# assayed.target: 5-hydroxytryptamine receptor 1F (Homo sapiens, UniProt P30939)
# Sequence (P30939 whole entry): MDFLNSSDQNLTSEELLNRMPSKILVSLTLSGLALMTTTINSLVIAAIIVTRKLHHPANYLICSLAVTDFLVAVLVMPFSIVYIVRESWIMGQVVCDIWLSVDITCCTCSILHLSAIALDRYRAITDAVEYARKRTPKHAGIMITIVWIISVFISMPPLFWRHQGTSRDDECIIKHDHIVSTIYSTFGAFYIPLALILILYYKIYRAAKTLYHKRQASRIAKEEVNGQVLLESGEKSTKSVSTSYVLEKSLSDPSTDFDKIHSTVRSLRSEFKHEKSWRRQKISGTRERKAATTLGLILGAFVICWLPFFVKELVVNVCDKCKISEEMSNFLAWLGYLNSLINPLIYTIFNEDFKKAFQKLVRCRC
measurement.type: pKi
# pKi: negative log10 of molar concentration; output just the value

pKi recorded for this molecule, `CN(C)CCc1c[nH]c2cccc(NC(=O)c3ccc(F)cc3)c12` , is 8.42
